Origin of values: PubChem BioAssay AID1963863

- System: 931267-113-T-J1-PDC KRAS spheroid with HUVEC/MSC, viability
- Method: Anticancer human tumor 931267-113-T-J1-PDC patient-derived colon adenocarcinoma cell line growth inhibition [KRAS2]
- Recorded conditions: curve of first compound; second compound 1 µM
- Source text: Multicellular complex tumor spheroid response to RAS pathway inhibitors in combination with a targeted agents in patient-derived cell lines with oncogenic KRAS variants from multiple cancer types A high-throughput screen of multi-cell type tumor spheroids was designed to identify active combinations of targeted small molecules and KRAS pathway inhibitors. […] Compounds. […] If the clinical Cmax for an agent had not been determined, the highest concentration tested was 10 microM. […]
Readout: pIC50
Expect pIC50 as a plain number equal to -log10 of the molar concentration.

Example cases with answers are listed next.
Molecule	Measured number
CCN1CCN(Cc2ccc(Nc3ncc(F)c(-c4cc(F)c5nc(C)n(C(C)C)c5c4)n3)nc2)CC1 + COc1cc2nc(C)nc(NC(C)c3cc(N)cc(C(F)(F)F)c3)c2cc1OC1CCOC1	6.59
CC1(C)CCC(CN2CCN(c3ccc(C(=O)NS(=O)(=O)c4ccc(NCC5CCOCC5)c([N+](=O)[O-])c4)c(Oc4cnc5[nH]ccc5c4)c3)CC2)=C(c2ccc(Cl)cc2)C1 + C=CC(=O)N1CCN(c2nc(=O)n(-c3c(C)ccnc3C(C)C)c3nc(-c4c(O)cccc4F)c(F)cc23)C(C)C1	5.70

Okay, now this molecule:
Item: CCNC(=O)CC1N=C(c2ccc(Cl)cc2)c2cc(OC)ccc2-n2c(C)nnc21 (stereo not given) + COc1cc2nc(C)nc(NC(C)c3cc(N)cc(C(F)(F)F)c3)c2cc1OC1CCOC1 | pIC50: 6.20

* * *

- Test system: 931267-113-T-J1-PDC KRAS spheroid with HUVEC/MSC, viability
- Method: Anticancer human tumor 931267-113-T-J1-PDC cell line growth inhibition [KRAS2];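 further: compound exposure lasted 7 days before the readout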
- Recorded conditions: curve of first compound; second compound 1 µM
Readout: IC50 (nM)
Give just the numeric value; nM need not be written.

Compound	Readout	Measured number
CC1OCC2(CCN(c3cnc(Sc4ccnc(N)c4Cl)c(N)n3)CC2)C1N (stereo not given) + CNCc1ccccc1-c1csc(C(C)Nc2nc(C)nc3cc(OC)c(OC)cc23)c1	IC50	31.6
CC(=O)Nc1cccc(-n2c(=O)n(C3CC3)c(=O)c3c(Nc4ccc(I)cc4F)n(C)c(=O)c(C)c32)c1 + C=CC(=O)N1CCN(c2nc(OCC3CCCN3C)nc3c2CCN(c2cccc4cccc(C)c24)C3)CC1CC#N	IC50	1.48
Cn1nccc1Nc1nccc(-c2cc3c(s2)C(C)(C)N(CCN2CCOCC2)C3=O)n1 + CC1OCC2(CCN(c3cnc(Sc4ccnc(N)c4Cl)c(N)n3)CC2)C1N	IC50	203
CCN1CCN(Cc2ccc(Nc3ncc(F)c(-c4cc(F)c5nc(C)n(C(C)C)c5c4)n3)nc2)CC1 + C=CC(=O)N1CCN(c2nc(OCC3CCCN3C)nc3c2CCN(c2cccc4cccc(C)c24)C3)CC1CC#N	IC50	734
CC1COCCN1c1cc(-c2ccnn2C)c2ccnc(-c3ccn[nH]3)c2n1 (stereo not given) + C=CC(=O)N1CCN(c2nc(OCC3CCCN3C)nc3c2CCN(c2cccc4cccc(C)c24)C3)CC1CC#N	IC50	25.6
CC(=O)Nc1cccc(-n2c(=O)n(C3CC3)c(=O)c3c(Nc4ccc(I)cc4F)n(C)c(=O)c(C)c32)c1 + COc1cc2nc(C)nc(NC(C)c3cc(N)cc(C(F)(F)F)c3)c2cc1OC1CCOC1	IC50	9.82

Item: COC(=O)c1ccc2c(C(=Nc3ccc(N(C)C(=O)CN4CCN(C)CC4)cc3)c3ccccc3)c(O)[nH]c2c1 + COc1cc2nc(C)nc(NC(C)c3cc(N)cc(C(F)(F)F)c3)c2cc1OC1CCOC1 | IC50: 513

Item: CC1(C)CCC(CN2CCN(c3ccc(C(=O)NS(=O)(=O)c4ccc(NCC5CCOCC5)c([N+](=O)[O-])c4)c(Oc4cnc5[nH]ccc5c4)c3)CC2)=C(c2ccc(Cl)cc2)C1 + C=CC(=O)N1CCN(c2nc(OCC3CCCN3C)nc3c2CCN(c2cccc4cccc(C)c24)C3)CC1CC#N | IC50: 1550

Item: CC1COCCN1c1cc(-c2ccnn2C)c2ccnc(-c3ccn[nH]3)c2n1 (stereo not given) + COc1cc2nc(C)nc(NC(C)c3cc(N)cc(C(F)(F)F)c3)c2cc1OC1CCOC1 | IC50: 27.9

Item: CC1COCCN1c1cc(-c2ccnn2C)c2ccnc(-c3ccn[nH]3)c2n1 (stereo not given) + CNCc1ccccc1-c1csc(C(C)Nc2nc(C)nc3cc(OC)c(OC)cc23)c1 | IC50: 27.8

Item: CC1COCCN1c1cc(-c2ccnn2C)c2ccnc(-c3ccn[nH]3)c2n1 (stereo not given) + C=CC(=O)N1CCN(c2nc(=O)n(-c3c(C)ccnc3C(C)C)c3nc(-c4c(O)cccc4F)c(F)cc23)C(C)C1 | IC50: 44.4

Item: COc1cc2nccc(Oc3ccc(NC(=O)C4(C(=O)Nc5ccc(F)cc5)CC4)cc3)c2cc1OC + COc1cc2nc(C)nc(NC(C)c3cc(N)cc(C(F)(F)F)c3)c2cc1OC1CCOC1 | IC50: 2840

Item: CCNC(=O)CC1N=C(c2ccc(Cl)cc2)c2cc(OC)ccc2-n2c(C)nnc21 (stereo not given) + C=CC(=O)N1CCN(c2nc(=O)n(-c3c(C)ccnc3C(C)C)c3nc(-c4c(O)cccc4F)c(F)cc23)C(C)C1 | IC50: 4480

Item: CC1(C)CCC(CN2CCN(c3ccc(C(=O)NS(=O)(=O)c4ccc(NCC5CCOCC5)c([N+](=O)[O-])c4)c(Oc4cnc5[nH]ccc5c4)c3)CC2)=C(c2ccc(Cl)cc2)C1 + COc1cc2nc(C)nc(NC(C)c3cc(N)cc(C(F)(F)F)c3)c2cc1OC1CCOC1 | IC50: 1820

Item: CC(C)NCC(C(=O)N1CCN(c2ncnc3c2C(C)CC3O)CC1)c1ccc(Cl)cc1 (stereo not given) + C=CC(=O)N1CCN(c2nc(OCC3CCCN3C)nc3c2CCN(c2cccc4cccc(C)c24)C3)CC1CC#N | IC50: 1810
